Provide the reported Dmax of each item.
Molecular target: UniProtKB P51532
Sequence (P51532 whole entry): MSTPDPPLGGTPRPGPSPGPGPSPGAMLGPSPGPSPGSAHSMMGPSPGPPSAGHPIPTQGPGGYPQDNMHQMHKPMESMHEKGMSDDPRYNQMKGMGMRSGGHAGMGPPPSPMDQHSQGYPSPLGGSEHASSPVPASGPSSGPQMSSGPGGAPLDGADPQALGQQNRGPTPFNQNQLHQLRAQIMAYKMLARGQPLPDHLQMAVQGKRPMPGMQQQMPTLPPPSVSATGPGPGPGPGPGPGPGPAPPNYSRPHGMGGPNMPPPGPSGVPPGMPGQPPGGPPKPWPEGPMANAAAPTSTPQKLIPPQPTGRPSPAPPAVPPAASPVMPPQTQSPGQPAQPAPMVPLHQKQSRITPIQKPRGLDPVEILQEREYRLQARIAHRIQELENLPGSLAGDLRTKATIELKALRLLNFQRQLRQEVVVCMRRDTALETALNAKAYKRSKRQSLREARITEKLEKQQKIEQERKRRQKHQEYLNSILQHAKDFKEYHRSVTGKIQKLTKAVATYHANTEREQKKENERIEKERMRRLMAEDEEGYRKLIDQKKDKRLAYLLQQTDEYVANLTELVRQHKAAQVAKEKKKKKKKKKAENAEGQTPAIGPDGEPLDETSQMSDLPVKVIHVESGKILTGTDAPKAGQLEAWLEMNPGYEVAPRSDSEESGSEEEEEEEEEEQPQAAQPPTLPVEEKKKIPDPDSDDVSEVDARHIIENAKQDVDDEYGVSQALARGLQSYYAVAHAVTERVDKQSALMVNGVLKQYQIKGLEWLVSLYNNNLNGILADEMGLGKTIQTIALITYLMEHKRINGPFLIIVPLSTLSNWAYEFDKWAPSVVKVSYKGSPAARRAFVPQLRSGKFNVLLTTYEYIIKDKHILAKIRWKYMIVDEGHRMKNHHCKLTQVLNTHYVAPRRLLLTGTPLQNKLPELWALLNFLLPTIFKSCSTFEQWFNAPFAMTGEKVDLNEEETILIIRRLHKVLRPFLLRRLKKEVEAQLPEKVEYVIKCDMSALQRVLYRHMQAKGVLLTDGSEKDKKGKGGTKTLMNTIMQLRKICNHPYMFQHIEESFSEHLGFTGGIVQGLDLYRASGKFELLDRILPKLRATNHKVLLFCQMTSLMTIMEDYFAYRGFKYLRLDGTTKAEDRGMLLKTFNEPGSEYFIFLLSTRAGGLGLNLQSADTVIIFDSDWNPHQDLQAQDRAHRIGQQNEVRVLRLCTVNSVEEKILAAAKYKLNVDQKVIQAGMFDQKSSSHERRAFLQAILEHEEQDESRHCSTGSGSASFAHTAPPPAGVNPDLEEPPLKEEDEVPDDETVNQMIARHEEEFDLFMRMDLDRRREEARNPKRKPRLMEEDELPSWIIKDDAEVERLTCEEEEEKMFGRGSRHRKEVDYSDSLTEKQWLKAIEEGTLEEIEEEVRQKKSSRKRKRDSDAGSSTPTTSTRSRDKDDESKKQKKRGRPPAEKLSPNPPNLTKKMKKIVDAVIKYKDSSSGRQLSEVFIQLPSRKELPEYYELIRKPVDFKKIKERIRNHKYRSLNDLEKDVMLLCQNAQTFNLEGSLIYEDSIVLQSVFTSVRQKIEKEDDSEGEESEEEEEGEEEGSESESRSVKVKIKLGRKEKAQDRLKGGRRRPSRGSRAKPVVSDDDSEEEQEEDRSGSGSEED
Assay: HiBiT assay for protein degradation, Hela SMARCA4-HiBiT cells (A series)
Assay type: cell-based
Set-up: fuse HiBiT to the carboxy terminus of SMARCA2 (Promega CS302365) or SMARCA4 (Promega CS3023225); host or cells: HeLa (CRISPR/Cas9 HiBiT knock-in)
Details: Hela SMARCA4-HiBiT cells, 24 hours treatment; read-out: SMARC A4 Hela HiBit Dmax

Q) What value of Dmax has been recorded for this entry: Cc1ncsc1-c1ccc([C@H](CN2CCOCC2)NC(=O)[C@@H]2C[C@@H](O)CN2C(=O)[C@H](C2CCCCC2)n2cc([C@H]3CC[C@H](CN4CCC(c5ccc6c(c5)-n5c(nc(=O)c7c(Cl)cccc75)C65CCCCC5)C4)CC3)nn2)cc1 (some centres unmarked)
A) < 50%

Q) What value of Dmax has been recorded for this entry: "Cc1ncsc1-c1ccc([C@H](CN2CCOCC2)NC(=O)[C@@H]2C[C@@H](O)CN2C(=O)[C@H](C2CCOCC2)n2cc([C@H]3CC[C@H](CN4CCC(c5ccc6c(c5)-n5c(nc(=O)c7c(Br)cccc75)C65CCCCC5)CC4)CC3)nn2)cc1"
A) 70 to 90%

Q) What value of Dmax has been recorded for this entry: "Cc1ncsc1-c1ccc([C@@H](NC(=O)[C@@H]2C[C@@H](O)CN2C(=O)[C@@H](n2cc(C3CC3)nn2)C(C)(C)C)C(=O)N2CCC(CN3CCC(c4ccc5c(c4)-n4c(nc(=O)c6c(Br)cccc64)C54CCCCC4)CC3)CC2)cc1"
A) > 90%

Q) What value of Dmax has been recorded for this entry: "Cc1ncsc1-c1ccc([C@H](C)NC(=O)[C@@H]2C[C@@H](O)CN2C(=O)[C@H](C2CCN(C(=O)[C@H]3CC[C@H](CN4CCC(c5ccc6c(c5)-n5c(nc(=O)c7c(Br)cccc75)C65CCCCC5)CC4)CC3)CC2)n2cc(C3CC3)nn2)cc1"
A) < 50%

Q) What value of Dmax has been recorded for this entry: "Cc1ncsc1-c1ccc([C@H](C)NC(=O)[C@@H]2C[C@@H](O)CN2C(=O)[C@H](C2CCNCC2)n2cc([C@H]3CC[C@H](CN4CCC(c5ccc6c(c5)-n5c(nc(=O)c7c(Cl)cccc75)C65CCCCC5)CC4)CC3)nn2)cc1"
A) 50 to 69%

Q) What value of Dmax has been recorded for this entry: "COCCOC[C@H](NC(=O)[C@@H]1C[C@@H](O)CN1C(=O)[C@@H](n1cc([C@H]2CC[C@H](CN3CCC(c4ccc5c(c4)-n4c(nc(=O)c6c(Cl)cccc64)C5(C)C)CC3)CC2)nn1)C(C)(C)C)c1ccc(-c2scnc2C)cc1"
A) < 50%

Q) What value of Dmax has been recorded for this entry: "COCCOCCOC[C@H](NC(=O)[C@@H]1C[C@@H](O)CN1C(=O)[C@@H](n1cc([C@H]2CC[C@H](CN3CCC(c4ccc5c(c4)-n4c(nc(=O)c6c(Cl)cccc64)C54CCCCC4)CC3)CC2)nn1)C(C)(C)C)c1ccc(-c2scnc2C)cc1"
A) 50 to 69%

Q) What value of Dmax has been recorded for this entry: "Cc1ncsc1-c1ccc([C@H](CNC(=O)[C@H]2CC[C@H](CN3CCC(c4ccc5c(c4)C4(CCCCC4)c4nc(=O)c6c(Br)cccc6n4-5)CC3)CC2)NC(=O)[C@@H]2C[C@@H](O)CN2C(=O)[C@@H](n2cc(C3CC3)nn2)C(C)(C)C)cc1"
A) < 50%

* * *

Target: SMARCA2 (Homo sapiens)
Test: HiBit assay in engineered HT1080 CRISPR knock-in cell, 6 hrs (B series), SMARCA2
Type: cell-based
Conditions: HT-1080, HT1080 CRISPR knock-in cells, 6 hrs incubation; read-out: SMARC A2 HT1080 HiBit Dmax (%)
assayEndpoint: Dmax

Q) What value of Dmax has been recorded for this entry: "Cc1ncsc1-c1ccc([C@H](CN2CCOCC2)NC(=O)[C@@H]2C[C@@H](O)CN2C(=O)[C@@H](c2cc(O[C@H]3CC[C@H](CN4CCN(c5ccc6c(c5)-n5c(nc(=O)c7c(Cl)cccc75)C65CCCCC5)CC4)CC3)no2)C(C)C)cc1"
A) > 90%

Q) What value of Dmax has been recorded for this entry: Cc1ncsc1-c1ccc(C(CN2CCOCC2)NC(=O)[C@@H]2C[C@@H](O)CN2C(=O)[C@@H](c2cc(O[C@H]3CC[C@H](CN4CCN(c5ccc6c(c5)-n5c(nc(=O)c7c(Cl)cccc75)C6(C)C)CC4)CC3)no2)C(C)C)cc1 (stereo partly drawn)
A) > 90%

Q) What value of Dmax has been recorded for this entry: "Cc1ncsc1-c1ccc([C@H](C)NC(=O)[C@@H]2C[C@@H](O)CN2C(=O)[C@@H](NC(=O)c2ccc(CN3CCC(c4ccc5c(c4)C(C)(C)c4nc(=O)c6c(Cl)cccc6n4-5)CC3)s2)C(C)(C)C)cc1"
A) > 90%

Q) What value of Dmax has been recorded for this entry: "Cc1ncsc1-c1ccc([C@H](C)NC(=O)[C@@H]2C[C@@H](O)CN2C(=O)[C@H](C(C)C)n2cc([C@H]3CC[C@H](CN4CCN(c5ccc6c(c5)-n5c(nc(=O)c7c(Cl)cccc75)C6(C)C)CC4)CC3)nn2)cc1"
A) > 90%

Q) What value of Dmax has been recorded for this entry: "C=C[C@H](NC(=O)[C@@H]1C[C@@H](O)CN1C(=O)[C@@H](NC(=O)[C@H]1CC[C@H](CN2CCC(c3ccc4c(c3)C(C)(C)c3nc(=O)c5c(Cl)cccc5n3-4)CC2)CC1)C(C)(C)C)c1ccc(-c2scnc2C)cc1"
A) 70 to 90%

Q) What value of Dmax has been recorded for this entry: Cc1ncsc1-c1ccc([C@H](C)NC(=O)[C@@H]2C[C@@H](O)CN2C(=O)C(c2cc(CN3CCC(c4ccc5c(c4)-n4c(nc(=O)c6c(Cl)cccc64)C5(C)C)CC3)no2)C(C)C)cc1 (stereo partly drawn)
A) 50 to 69%

Q) What value of Dmax has been recorded for this entry: "Cc1ncsc1-c1ccc([C@H](C)NC(=O)[C@@H]2C[C@@H](O)CN2C(=O)[C@@H](c2cc(OCC#Cc3cccc4c3C(C)(C)c3nc(=O)c5c(Cl)cccc5n3-4)no2)C(C)C)cc1"
A) > 90%

Q) What value of Dmax has been recorded for this entry: "Cc1ncsc1-c1ccc([C@H](CN2CCOCC2)NC(=O)[C@@H]2C[C@@H](O)CN2C(=O)[C@H](C(C)C)n2cc([C@H]3CC[C@H](CN4CCC(c5ccc6c(c5)-n5c(nc(=O)c7c(Br)cccc75)C65CCCCC5)CC4)CC3)nn2)cc1"
A) > 90%

Q) What value of Dmax has been recorded for this entry: "Cc1ncsc1-c1ccc([C@H](C)NC(=O)[C@@H]2C[C@@H](O)CN2C(=O)[C@@H](c2cc(OCCc3cccc4c3C(C)(C)c3nc(=O)c5c(Cl)cccc5n3-4)no2)C(C)C)cc1"
A) 70 to 90%

* * *

Target: SMARCA2 (Homo sapiens, UniProt P51531)
Sequence (P51531 whole entry): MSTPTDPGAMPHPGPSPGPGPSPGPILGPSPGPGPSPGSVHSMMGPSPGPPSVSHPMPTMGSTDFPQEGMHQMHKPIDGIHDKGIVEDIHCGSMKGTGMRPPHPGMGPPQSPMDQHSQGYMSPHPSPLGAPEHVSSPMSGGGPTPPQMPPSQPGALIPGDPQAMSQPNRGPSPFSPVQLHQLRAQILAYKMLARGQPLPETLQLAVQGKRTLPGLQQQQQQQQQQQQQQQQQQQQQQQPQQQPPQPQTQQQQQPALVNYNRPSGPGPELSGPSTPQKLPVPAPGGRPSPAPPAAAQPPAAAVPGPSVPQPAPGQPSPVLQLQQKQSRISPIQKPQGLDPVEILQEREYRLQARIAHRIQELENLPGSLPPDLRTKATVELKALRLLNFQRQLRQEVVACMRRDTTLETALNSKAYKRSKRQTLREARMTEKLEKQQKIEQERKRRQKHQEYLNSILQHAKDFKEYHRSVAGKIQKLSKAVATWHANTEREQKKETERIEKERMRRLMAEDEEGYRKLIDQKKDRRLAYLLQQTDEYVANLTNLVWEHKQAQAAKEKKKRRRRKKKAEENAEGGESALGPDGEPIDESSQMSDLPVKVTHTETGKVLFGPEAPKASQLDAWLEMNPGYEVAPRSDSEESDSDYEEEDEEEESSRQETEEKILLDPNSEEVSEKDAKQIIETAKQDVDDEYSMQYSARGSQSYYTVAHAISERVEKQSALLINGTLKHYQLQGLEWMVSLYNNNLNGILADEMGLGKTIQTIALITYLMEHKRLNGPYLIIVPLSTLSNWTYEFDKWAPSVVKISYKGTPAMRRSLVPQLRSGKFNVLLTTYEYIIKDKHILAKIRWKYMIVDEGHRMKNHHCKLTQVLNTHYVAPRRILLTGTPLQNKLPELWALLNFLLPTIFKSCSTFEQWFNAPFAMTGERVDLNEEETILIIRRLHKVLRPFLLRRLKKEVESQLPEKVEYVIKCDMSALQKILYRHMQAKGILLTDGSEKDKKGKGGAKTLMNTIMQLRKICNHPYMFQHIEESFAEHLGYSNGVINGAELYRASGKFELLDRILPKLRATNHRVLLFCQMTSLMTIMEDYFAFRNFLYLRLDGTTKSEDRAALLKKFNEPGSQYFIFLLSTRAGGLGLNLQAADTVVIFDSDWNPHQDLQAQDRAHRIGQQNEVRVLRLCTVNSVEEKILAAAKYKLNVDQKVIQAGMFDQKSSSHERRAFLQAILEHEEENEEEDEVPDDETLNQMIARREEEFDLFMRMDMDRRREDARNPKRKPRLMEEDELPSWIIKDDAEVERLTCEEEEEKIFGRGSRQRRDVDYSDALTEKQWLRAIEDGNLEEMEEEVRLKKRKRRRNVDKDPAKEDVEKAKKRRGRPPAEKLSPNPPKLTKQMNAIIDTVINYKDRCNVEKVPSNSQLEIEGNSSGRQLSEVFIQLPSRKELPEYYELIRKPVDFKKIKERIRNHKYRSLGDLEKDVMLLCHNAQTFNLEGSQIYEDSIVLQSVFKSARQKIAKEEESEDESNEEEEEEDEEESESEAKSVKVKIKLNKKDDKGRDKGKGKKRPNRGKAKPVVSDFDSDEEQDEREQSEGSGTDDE
Test: HiBiT assay for protein degradation, Hela SMARCA2-HiBiT cells (A series);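 further: 24 h compound treatment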
Format: cell-based
Set-up: Hela cells were genetically modified via CRISPR/Cas9 to fuse HiBiT to the carboxy terminus of SMARCA2; host or cells: HeLa (CRISPR/Cas9 HiBiT knock-in)
Conditions: Hela SMARCA2-HiBiT cells, 24 hours treatment; read-out: SMARC A2 Hela HiBit Dmax (%)
assayEndpoint: Dmax

Q) What value of Dmax has been recorded for this entry: "Cc1ncsc1-c1ccc([C@H](CN2CCOCC2)NC(=O)[C@@H]2C[C@@H](O)CN2C(=O)[C@H](C2CCCCC2)n2cc(-c3ccc(CN4CCC(c5ccc6c(c5)-n5c(nc(=O)c7c(Br)cccc75)C65CCCCC5)CC4)cc3)nn2)cc1"
A) 50 to 69%

Q) What value of Dmax has been recorded for this entry: "Cc1ncsc1-c1ccc([C@H](CN2CCC3(COC3)C2)NC(=O)[C@@H]2C[C@@H](O)CN2C(=O)[C@@H](n2cc([C@H]3CC[C@H](CN4CCC(c5ccc6c(c5)-n5c(nc(=O)c7c(Cl)cccc75)C65CCCCC5)CC4)CC3)nn2)C(C)(C)C)cc1"
A) > 90%

Q) What value of Dmax has been recorded for this entry: "Cc1nc(C)c(-c2ccc([C@H](CN3CCOCC3)NC(=O)[C@@H]3C[C@@H](O)CN3C(=O)[C@@H](n3cc([C@H]4CC[C@H](CN5CCC(c6ccc7c(c6)-n6c(nc(=O)c8c(Cl)cccc86)C76CCCCC6)CC5)CC4)nn3)C(C)(C)C)cc2)s1"
A) > 90%

Q) What value of Dmax has been recorded for this entry: "Cc1ncsc1-c1ccc([C@H](C)NC(=O)[C@@H]2C[C@@H](O)CN2C(=O)[C@H](C2CCN(C(=O)[C@H]3CC[C@H](CN4CCC(c5ccc6c(c5)-n5c(nc(=O)c7c(Cl)cccc75)C65CCCCC5)CC4)CC3)CC2)n2cc(C3CC3)nn2)cc1"
A) 70 to 90%
